- Tgt: MERTK (UniProt Q12866)
- Sequence (Q12866 whole entry, looked up): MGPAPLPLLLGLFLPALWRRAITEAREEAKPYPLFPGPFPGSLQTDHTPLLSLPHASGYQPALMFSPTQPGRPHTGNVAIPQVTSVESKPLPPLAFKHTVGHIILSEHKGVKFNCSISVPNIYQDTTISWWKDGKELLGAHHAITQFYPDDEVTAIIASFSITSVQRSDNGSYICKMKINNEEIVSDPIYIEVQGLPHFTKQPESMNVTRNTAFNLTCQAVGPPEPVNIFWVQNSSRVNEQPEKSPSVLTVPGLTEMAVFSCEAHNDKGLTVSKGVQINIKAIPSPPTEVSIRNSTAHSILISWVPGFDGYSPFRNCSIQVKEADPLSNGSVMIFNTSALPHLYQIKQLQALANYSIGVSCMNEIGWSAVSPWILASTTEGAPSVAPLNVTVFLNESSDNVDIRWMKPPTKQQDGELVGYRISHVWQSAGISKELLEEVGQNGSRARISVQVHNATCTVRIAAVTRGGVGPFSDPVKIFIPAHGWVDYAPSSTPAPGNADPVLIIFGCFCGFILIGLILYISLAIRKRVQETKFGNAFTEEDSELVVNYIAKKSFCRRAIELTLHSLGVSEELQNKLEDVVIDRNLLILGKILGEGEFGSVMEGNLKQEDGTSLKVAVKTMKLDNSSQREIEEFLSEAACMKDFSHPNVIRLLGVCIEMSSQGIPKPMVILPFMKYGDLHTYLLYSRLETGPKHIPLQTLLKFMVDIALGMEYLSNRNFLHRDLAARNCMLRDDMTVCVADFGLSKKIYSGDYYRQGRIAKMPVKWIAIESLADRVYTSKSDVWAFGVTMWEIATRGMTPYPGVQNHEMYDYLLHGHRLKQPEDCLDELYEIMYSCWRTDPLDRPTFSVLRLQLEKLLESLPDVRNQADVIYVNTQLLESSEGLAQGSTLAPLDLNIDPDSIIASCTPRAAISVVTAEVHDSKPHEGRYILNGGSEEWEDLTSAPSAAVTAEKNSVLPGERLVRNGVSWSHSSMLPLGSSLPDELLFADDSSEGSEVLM
- Test Summary: phosphorylation enrichment, bacterial display (enrichment ratio); higher = better substrate or ligand; peptides without Tyr show the background;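 further: 11-residue human phosphosite peptides and single-mutation variants displayed on the E. coli surface, counted by deep sequencing, each peptide's frequency after selection divided by its frequency in the unselected input library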;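 further: frequency after pTyr selection over input frequency; kinase dosed for 20-30% of maximal phosphorylation in three min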
Kind request: treat 0.5 as inclusive, so phosphorylation enrichment at 0.5 or higher is MET, anything lower is NOT MET.

sequence_code="RTIPDYTSFNT [EPHB2_Y912]" group_label=MET
sequence_code="RGVAHYILQTF [SLC39A4_Y359_T357A]" group_label=MET
sequence_code="FTNELYMMMRD [FGFR1_Y730_C725Y_YF]" group_label=MET
sequence_code="TVLEHYRRTHC [MYBPC3_Y1119]" group_label=MET
sequence_code="MENFIYESMQY [CYP19A1_Y361_R365Q]" group_label=MET
sequence_code="TKAEKYVNKPK [PLCG1_Y991_A995P]" group_label="NOT MET"
sequence_code="FRQLQYCPSVE [CTNND2_Y508_YF]" group_label="NOT MET"
sequence_code="LTRDIYKNDYY [ROS1_Y2110_A2106T]" group_label=MET
sequence_code="GTFEDYVEGLR [MYL6_Y89_YF]" group_label="NOT MET"
sequence_code="GCKNRYDEDKP [THAP1_Y14_K16E]" group_label="NOT MET"

Input line: Entry SVVVPDEPPEV [TP53_Y220_Y220D] : is its phosphorylation enrichment no less than 0.5?
Output line: MET

Input line: Now give it for KHGGNYVPAPE [OSCP1_Y237_K242E] too.
Output line: NOT MET

Input line: Here is the next sequence: TTTQAYRVDER [PRKN_Y391]
Output line: NOT MET

Input line: Then this sequence: QMVGMYAFSFM [AVPR2_Y124_S126F_YF]
Output line: MET

Input line: Again, but for GFPVHYTDVSN [DNMT3B_Y815]
Output line: MET

Input line: And the next one, VAMELYVFRGV [GAN_Y471_G474R] ?
Output line: MET

Input line: How about REVVNYVQKRS [RMI1_Y450_N455S] ?
Output line: MET

Input line: Moving on to SSQTIYQRVEG [TFR2_Y23_V22I]
Output line: MET

Input line: Note, next up: YQGGTYSKACT [FGG_Y380_S384C]
Output line: NOT MET

Input line: AQVDTYCRHNF [HLA-DRB1_Y107_A103Q_YF] , same question.
Output line: MET

Input line: Same question for NREGVYTVFAP [TGFBI_Y537] please.
Output line: MET

Input line: Okay, and MENFIYESMQF [CYP19A1_Y361_R365Q_YF] ?
Output line: MET

Input line: And for TWSRSYRSDRL [CRYBB1_Y131_S129R] ?
Output line: MET

Reference source for all entries: the supplement of paper PMC10065799
